# target.or.test.system: Stb4 (UniProt P50104)
# Sequence (P50104 whole entry): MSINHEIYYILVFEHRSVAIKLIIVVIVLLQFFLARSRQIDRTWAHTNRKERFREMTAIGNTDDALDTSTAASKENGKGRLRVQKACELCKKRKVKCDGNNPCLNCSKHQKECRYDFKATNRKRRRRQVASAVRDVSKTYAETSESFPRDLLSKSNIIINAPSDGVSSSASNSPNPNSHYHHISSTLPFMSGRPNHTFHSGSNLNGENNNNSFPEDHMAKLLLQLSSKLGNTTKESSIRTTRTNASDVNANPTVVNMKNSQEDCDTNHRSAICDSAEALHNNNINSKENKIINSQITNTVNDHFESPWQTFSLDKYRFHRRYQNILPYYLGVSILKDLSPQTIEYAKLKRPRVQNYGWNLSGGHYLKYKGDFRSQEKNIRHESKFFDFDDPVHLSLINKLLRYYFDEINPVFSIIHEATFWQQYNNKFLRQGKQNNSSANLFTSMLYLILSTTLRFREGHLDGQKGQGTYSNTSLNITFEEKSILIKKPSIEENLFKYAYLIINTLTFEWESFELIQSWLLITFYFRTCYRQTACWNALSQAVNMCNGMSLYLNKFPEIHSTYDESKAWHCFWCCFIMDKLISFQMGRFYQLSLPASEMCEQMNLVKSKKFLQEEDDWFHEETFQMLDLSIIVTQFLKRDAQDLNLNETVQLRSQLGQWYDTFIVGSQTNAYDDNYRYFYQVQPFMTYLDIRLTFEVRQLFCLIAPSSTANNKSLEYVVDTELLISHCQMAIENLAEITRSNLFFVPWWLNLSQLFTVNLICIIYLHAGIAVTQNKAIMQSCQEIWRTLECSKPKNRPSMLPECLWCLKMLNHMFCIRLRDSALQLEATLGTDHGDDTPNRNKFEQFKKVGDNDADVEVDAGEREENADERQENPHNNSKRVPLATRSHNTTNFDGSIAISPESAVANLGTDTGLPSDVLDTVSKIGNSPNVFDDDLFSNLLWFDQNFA
# test.description: PBM E-score (8-mer binding enrichment) (E-score (-0.5 to 0.5)); higher = stronger / more preferred TF binding
# experimental.parameters: protein concentration: 200 nM; construct: GST-DNA-binding domain
Whole data set: some 33,000 sequences, median “E-score (-0.5 to 0.5)” near -0.056, cut for the highest 2% near 0.38. This excerpt belongs to a sample that is enriched for the highest values.
I'd be grateful if you could share measured PBM E-score for these entries.
Answers are plain numbers.

Examples with answers:
QUERY: For the record CCTCCCGA , what value of PBM E-score is listed for Stb4 (UniProt P50104)?
RESULT: 0.387

QUERY: For ATCCCGAC then?
RESULT: 0.387

QUERY: For CTCGCCGC then?
RESULT: 0.0149

QUERY: For GCTATAGC then?
RESULT: -0.096

QUERY: For ACTCCCGG then?
RESULT: 0.372

QUERY: For AGCAGTAC then?
RESULT: 0.0047

QUERY: For CTCGGATC then?
RESULT: 0.481

QUERY: For CGGAATTC then?
RESULT: 0.322

QUERY: For GGGAATCA then?
RESULT: 0.0543

QUERY: For CCTCCCCA then?
RESULT: -0.0256

Batch of 3 sequences: report PBM E-score for each.
1. CAACACAG
2. TTCCCAAA
3. CGCCACGC

RESULT:
-0.278
-0.234
-0.108

Batch of 8 sequences: report PBM E-score for each.
1. ACCCCGAC
2. CTTAAAAA
3. CGGAATAA
4. AATTTGCC
5. GCTCCCGA
6. AATGCAGC
7. GATCTTCC
8. CGGAACGC

RESULT:
1. 0.248
2. -0.232
3. 0.384
4. 0.0997
5. 0.41
6. -0.19
7. 0.285
8. 0.407

Batch of 7 sequences: report PBM E-score for each.
1. AGGACTGA
2. AGTAAAAC
3. GCTCCCAA
4. ATCCCGAT
5. CAGGTGGA
6. CTGGGATC
7. CGTGCCAG

RESULT:
[-0.0328, -0.181, -0.272, 0.342, -0.236, -0.0424, -0.186]

Cited source for all entries: the supplement of paper PMC3334620
